Measurement protocol: chemical genetic growth profiling, strain panel (AID 1159580);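 note: tested at 20 µM; growth read once vehicle control cultures reached saturation at 30 °C; 1 = growth at the plate median or of vehicle wells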
Condition info: S. cerevisiae deletion strains, growth OD, locus YDR054C, strain cdc34, stronger effect = lower value
In all, about 5,500 compounds went through this assay and about 2,000 (36%) were called active. Roughly 18% stayed inconclusive and do not appear here. The list shows a part of the results.
Overview of reported normalized growth across a group of molecules:
// return just the number, without any unit appended

Example results:
Molecule	Value observed
CCOC(=O)c1cnc(-c2ccccn2)[nH]c1=O	0.899
O=[N+]([O-])c1ccc(Sc2ccccc2)c([N+](=O)[O-])c1	0.83
S=C(NCCc1csc2ccccc12)Nc1ccc(Cl)cc1	0.931
O=[N+]([O-])c1ccc(Sc2ccccc2)cc1O	0.899
Cc1csc2c(N3CCN(C(=S)Nc4ccc(C(F)(F)F)cc4)CC3)ncnc12	0.997

*Q* normalized growth for O=C(NCc1ccc2c(c1)OCO2)c1cc2ccccc2s1 ?
*A* 0.648

*Q* Query S=C(NCc1cccs1)Nc1cc(Cl)cc(Cl)c1 next
*A* 0.967

*Q* Query Cc1cc(N=Cc2cc(Cl)cc(Cl)c2O)no1 next
*A* 0.965

*Q* Query Cc1cc(C)c2cc(C(=O)NCCNc3ccc(C(F)(F)F)cn3)[nH]c2c1 next
*A* 0.968

*Q* Query COc1cc(C2CC(=S)Nc3ccccc3S2)cc(OC)c1OC (stereo not drawn) next
*A* 0.986

*Q* Query O=C1C(NCc2ccccc2)=C(NCc2ccccc2)C(=O)c2ccccc21 next
*A* 0.921

*Q* Query COC(=O)c1cc([N+](=O)[O-])ccc1S(=O)(=O)Cc1ccc(Cl)cc1 next
*A* 0.983

*Q* Query COC(=O)c1cc(I)c(OC(C)=O)c(I)c1 next
*A* 0.939

*Q* Query COc1ccc(Oc2ccc([N+](=O)[O-])cc2C(=O)O/N=C(/N)c2ccc(C(F)(F)F)cc2)cc1 next
*A* 0.99

*Q* Query O=C(Nc1ccc(F)cc1F)c1cc(Cl)ccc1O next
*A* 0.928

*Q* Query CC(C)Sc1c(Cl)cccc1NC(=O)Nc1cccc(C(F)(F)F)c1 next
*A* 0.97

*Q* Query O=C(Nc1ccc(F)cc1)c1cc(Br)ccc1O next
*A* 0.876

###

Measurement protocol: chemical genetic growth profiling, strain panel (AID 1159580);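 note: tested at 20 µM; growth read once vehicle control cultures reached saturation at 30 °C; 1 = growth at the plate median or of vehicle wells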
Condition info: S. cerevisiae deletion strains, growth OD, locus YLL026W, stronger effect = lower value
Hit rate of the full screen: of about 5,500 compounds, about 2,000 (36%) were called active. Inconclusive results (about 18%) are left out. This is one part of the list.
Overview of reported normalized growth across a group of compounds:

Example results:
Compound	normalized growth
O=c1c(O)c(-c2ccccc2)oc2cc(O)ccc12	0.558 (active)
CCCCN(CC)c1c([N+](=O)[O-])cc(C(F)(F)F)cc1[N+](=O)[O-]	1 (inactive)
O=c1c(O)c(-c2ccccc2)oc2ccccc12	0.354 (active)
O=c1c(O)c(-c2ccccc2)oc2ccc3occc3c12	0.867 (active)

From here, focus on the item given below.
*Q* normalized growth for CC(=O)O[C@@H]1C2CC[C@@H]3C1(C[C@@H](O)[C@@]1(O)[C@@H](C[C@H](O)C1(C)C)[C@]3(C)O)C[C@@]2(C)O (stereo not given in full) ?
*A* 0.993 (inactive)

###

Measurement protocol: chemical genetic growth profiling, strain panel (AID 1159580);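 note: tested at 20 µM; growth read once vehicle control cultures reached saturation at 30 °C; 1 = growth at the plate median or of vehicle wells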
Condition info: S. cerevisiae deletion strains, growth OD, locus YFL009W, strain cdc4
The campaign covered roughly 5,500 compounds. About 2,000 (36%) were called active. Inconclusive results (about 18%) are left out. No stated cut-off is given here; in the data, active means normalized growth mostly below about 0.91 (no sharp cut-off); inconclusive means no clear call, values can overlap the other calls; inactive means mostly above about 0.92. The list shows a part of the results.
Reply using exactly one outcome from Y for active, N for inactive

Example cases with answers are listed next.
Compound	Qualitative label
O=[N+]([O-])c1cc(C(F)(F)F)ccc1Sc1n[nH]c(-c2cc(Cl)cc(Cl)c2)n1	N
CC(C)Sc1c(Cl)cccc1NC(=O)Nc1ccccc1	N
O=C(Nc1ccc(F)cc1)c1cc(Br)ccc1O	Y

*Q* Query: recorded result category for COC(=O)c1cc(I)c(OC(C)=O)c(I)c1 in this test
*A* N

*Q* Query COc1ccc(OC)c2nc3c(nc12)C(=O)c1ccccc1-3 next
*A* N

*Q* Query S=C(NCc1cccs1)Nc1cc(Cl)cc(Cl)c1 next
*A* N

*Q* Query N#CC(C(=O)Nc1cccc(C(F)(F)F)c1)C(=S)Nc1ccccc1Cl (stereo not drawn) next
*A* N
